Taken from PubChem BioAssay (NCI).

Test: NCI Yeast Anticancer Drug Screen. Data for the bub3 strain (AID 167)
Conditions: S. cerevisiae bub3 mutant strain, at 3.7 µM, active compounds read high
The panel holds about 79,000 compounds, 15% with a hit somewhere; the sample as a whole holds those more often.
endpoint.name: growth inhibition (%)
// return numeric value only (unit: %, not printed)

molecule: O=C(O)C1C2CCC(C2)C1c1ccccc1 (centres undefined)
endpoint.name: growth inhibition
numeric.readout: 11
--
molecule: CC1=C(O)C(=O)C=C2C1=CC=C1[C@@]2(C)CCC2(C)[C@@H]3C[C@@H](C)C(=O)C[C@]3(C)CC[C@]12C (some centres undefined)
endpoint.name: growth inhibition
numeric.readout: -6
--
molecule: O=C1c2ccccc2C(=O)C(Cl)C1Cl (centres undefined)
endpoint.name: growth inhibition
numeric.readout: 35
--
molecule: [N-]=[N+]=C1C(Cl)=C(Cl)C(Cl)=C1Cl
endpoint.name: growth inhibition
numeric.readout: 1
--
molecule: c1ccc2cc3n[se]nc3cc2c1
endpoint.name: growth inhibition
numeric.readout: 1
--
molecule: O=c1oc2ccccc2c(O)c1C(c1ccc2ccccc2c1)c1c(O)c2ccccc2oc1=O
endpoint.name: growth inhibition
numeric.readout: -8

Problem: Supply reported growth inhibition belonging to this molecule: CC1(Cl)CC(C)(/C=C/Cl)C(Cl)CC1Cl (centres undefined)
Result: 0

Problem: Supply reported growth inhibition belonging to this molecule: O=C(O)CCCOc1cc(Cl)c(Cl)cc1Cl
Result: -3

Problem: Supply reported growth inhibition belonging to this molecule: Nc1ccc(Cl)cc1C(=O)c1ccccc1
Result: -40

====

Assay: NCI Yeast Anticancer Drug Screen. Data for the mlh1 strain (AID 171);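 further: 0% = growth of vehicle-treated control cultures of the same strain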
Settings: S. cerevisiae mlh1 strain growth inhibition; at 33.0 µM
Compounds without any hit were thinned out: in the full panel of roughly 79,000, 15% have a hit. The source made the active and inactive calls. No stated cut-off is given here; in the data, active means growth inhibition above about 70%; inactive means the rest.
Entry note: the call must match one of true (1) (active), false (0) (inactive)

Solved cases (5 shown):
molecule: N#CC(C#N)=Cc1ccc(C#N)cc1
category.label: false (0)

molecule: COC1CC(CC2CCC(C)C(C(C)C(=O)O)O2)OC2(OC(C)(C3CCC(C)(C4OC(C5OC(O)(CO)C(C)CC5C)CC4C)O3)CC2C)C1C (stereo not drawn)
category.label: true (1)

molecule: CO[C@H](/C(C)=C/C=C/C(C)=C/c1coc(C)n1)[C@H](C)[C@H]1C[C@@H](O)[C@@]2(C)O[C@H]2/C=C/[C@@H](C)[C@@H]2C[C@@H](CC(=O)O2)C[C@H]2O[C@@H]2C(=O)O1
category.label: false (0)

molecule: C[C@]12CCC(=O)C=C1CC[C@@H]1C2CC[C@@]2(C)C1CC[C@@H]2OC(=O)C12OC1CCC2=O (stereo partly drawn)
category.label: true (1)

molecule: O=C(NNC(=O)OCC(Cl)(Cl)Cl)OCC(Cl)(Cl)Cl
category.label: true (1)

Problem: Record request — test call for CC1CCCN(CCc2ccccc2)CC1 (stereo not drawn)
Result: false (0)

Problem: Record request — test call for O=C(c1ccccc1)C1C(c2ccccc2[N+](=O)[O-])N1C1CCCCC1 (stereo not drawn)
Result: false (0)

Problem: Record request — test call for O=S(=O)(O)c1ccc(Cl)cc1.[Cd]
Result: false (0)

====

Test: NCI Yeast Anticancer Drug Screen. Data for the mgt1 strain (AID 153)
Conditions: S. cerevisiae mgt1 mutant growth inhibition; at 100.0 µM; active compounds read high
This is part of a sample that, as a whole, favours compounds with a hit. Of some 79,000 tested, about 15% had one in any assay.
Outcome: TRUE for growth inhibition of at least 40%; FALSE for anything lower.

Solved cases (3 shown):
compound: COC1C(O)C(C)OC(OC2C(Oc3cccc4c(O)c5c(=O)oc6ccc(C)c7c(=O)oc(c34)c5c67)OC(C)C(O)C2O)C1O (centres undefined)
category.label: FALSE
//
compound: CC(C)(C)c1cc([N+](=O)[O-])cc([N+](=O)[O-])c1O
category.label: TRUE
//
compound: O=Cc1ccc(C(F)(F)F)cc1.[C-]#[O+].[C-]#[O+].[C-]#[O+].[Cr]
category.label: FALSE

Problem: Entry CC1=C2C(=C[C@@](C)(CO)[C@@H]2O)C(=O)[C@](C)(O)C12CC2 : is its growth inhibition no less than 40%?
Result: FALSE

Problem: Entry Nc1ccc(Cl)cc1C(=O)c1ccccc1 : is its growth inhibition no less than 40%?
Result: TRUE

Problem: Entry COc1cccc2c1C(=O)c1c(O)c3c(c(O)c1C2=O)C[C@@](O)(C(C)=O)C[C@@H]3OC1CC(N)C(OC2CC(O)C(O)C(C)O2)C(C)O1 (some centres undefined) : is its growth inhibition no less than 40%?
Result: FALSE

Problem: Entry [N-]=[N+]=C1C(Cl)=C(Cl)C(Cl)=C1Cl : is its growth inhibition no less than 40%?
Result: TRUE

Problem: Entry c1c(N2CCOCC2)ssc1=[N+]1CCOCC1 : is its growth inhibition no less than 40%?
Result: FALSE

Problem: Entry CC[C@@]1(O)C[C@H](OC2CC(N(C)C)C(O)C(C)O2)c2c(O)c3c(c(O)c2[C@H]1OC1CC(N(C)C)C(O)C(C)O1)C(=O)c1cccc(O)c1C3=O (some centres undefined) : is its growth inhibition no less than 40%?
Result: TRUE

====

Assay: NCI Yeast Anticancer Drug Screen. Data for the cln2 rad14 strain (AID 165);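 further: 0% = growth equal to vehicle treated cultures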
Settings: S. cerevisiae cln2 rad14 strain, at 50.0 µM (retest, dose inferred, filed as 5.0), active compounds read high
This is part of a sample that, as a whole, favours compounds with a hit. Of some 79,000 tested, about 15% had one in any assay.
Measured growth inhibition, listed per entry.
// return numeric value only (unit: %, not printed)

molecule: CC12CCC(O)CC1CCC1C2CCC2(C)C1CC1CC(=O)OC12 (centres undefined)
numeric.readout: 99

Problem: Supply reported growth inhibition belonging to this molecule: O=[N+]([O-])c1cc(S(=O)(=O)F)ccc1Cl
Result: 100

Problem: Supply reported growth inhibition belonging to this molecule: CCN(CC)CC(=O)c1ccc2c(ccc3ccccc32)c1
Result: 97

Problem: Supply reported growth inhibition belonging to this molecule: O=[As]c1ccc(Cl)cc1Cl (centres undefined)
Result: 99

Problem: Supply reported growth inhibition belonging to this molecule: CC(=O)C(Br)C(C)=O.CC(=O)C(Br)C(C)=O.CC(=O)C(Br)C(C)=O.[Rh]
Result: 4

Problem: Supply reported growth inhibition belonging to this molecule: CCC1(OC(=O)CN)C(=O)OCc2c1cc1n(c2=O)Cc2cc3ccccc3nc2-1 (centres undefined)
Result: 92

Problem: Supply reported growth inhibition belonging to this molecule: COC(=O)C1C2c3ccccc3C(c3ccccc32)C1C(=O)OC (centres undefined)
Result: 28

Problem: Supply reported growth inhibition belonging to this molecule: O=C(O)CCCc1cc(I)c(N(CCCl)CCCl)c(I)c1
Result: 98

Problem: Supply reported growth inhibition belonging to this molecule: [Br][Ni][Br].c1ccc(CN2CCN(Cc3ccccc3)CCN(Cc3ccccc3)CCN(Cc3ccccc3)CC2)cc1
Result: 78

Problem: Supply reported growth inhibition belonging to this molecule: CN(C)CC(Cl)CCl (centres undefined)
Result: 64

Problem: Supply reported growth inhibition belonging to this molecule: C/C(=N\NC(N)=O)C(CN1CCOCC1)C(c1ccccc1)c1c(O)c2ccccc2oc1=O (centres undefined)
Result: -7

Problem: Supply reported growth inhibition belonging to this molecule: O=S(=O)(O)/C(=C\c1ccccc1)c1ccccc1 (tested in a mixture with another compound)
Result: 23

Problem: Supply reported growth inhibition belonging to this molecule: CCN(CC)CC(=O)O[C@]1(CC)C(=O)OCc2c1cc1n(c2=O)Cc2cc3ccccc3nc2-1
Result: 93

Problem: Supply reported growth inhibition belonging to this molecule: Cc1ccc(S(=O)(=O)OC2CCC3C4CC=C5CC(SC(=N)N)CCC5(C)C4CCC23C)cc1 (centres undefined)
Result: 6

Problem: Supply reported growth inhibition belonging to this molecule: C=Cc1c2ccccc2cc2ccccc12
Result: 60

====

Assay: NCI Yeast Anticancer Drug Screen. Data for the rad50 strain (AID 155);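 further: 0% = growth of vehicle-only cultures of the same strain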
Details: S. cerevisiae rad50 strain growth inhibition; at 11.0 µM
This is part of a sample that, as a whole, favours compounds with a hit. Of some 79,000 tested, about 15% had one in any assay. Active and inactive are the calls of the source. Cut-off read from the data, not from the text of the source: active = growth inhibition above about 70%; inactive = the rest.
Entry note: the call must match one of 1 (active), 0 (inactive)

Solved cases (3 shown):
compound: CN(C)CCC(C(=O)C(Br)Br)(c1ccccc1)c1ccccc1
category.label: 1
--
compound: C[C@]12CC[C@H](O)CC1=CC[C@@H]1[C@@H]2CC[C@]2(C)C(=O)CC[C@@H]12
category.label: 0
--
compound: Oc1ccc2nc3ccccc3nc2c1
category.label: 0

Problem: Record request — test call for O=C(O)CCCOc1cc(Cl)c(Cl)cc1Cl
Result: 0

Problem: Record request — test call for CCCCCCCCCCCCCCCCP(=O)(O)OP(=O)(O)OCC1OC(n2ccc(N)nc2=O)C(O)C1O (stereo unspecified)
Result: 0

Problem: Record request — test call for Cc1ccc(P(c2ccc(C)cc2)c2ccc(C)cc2)cc1
Result: 0
